Reference for the values: patent US20230000842A1

- System Tested: CLK3 kinase (Homo sapiens)
- Sequence (P49761 whole entry): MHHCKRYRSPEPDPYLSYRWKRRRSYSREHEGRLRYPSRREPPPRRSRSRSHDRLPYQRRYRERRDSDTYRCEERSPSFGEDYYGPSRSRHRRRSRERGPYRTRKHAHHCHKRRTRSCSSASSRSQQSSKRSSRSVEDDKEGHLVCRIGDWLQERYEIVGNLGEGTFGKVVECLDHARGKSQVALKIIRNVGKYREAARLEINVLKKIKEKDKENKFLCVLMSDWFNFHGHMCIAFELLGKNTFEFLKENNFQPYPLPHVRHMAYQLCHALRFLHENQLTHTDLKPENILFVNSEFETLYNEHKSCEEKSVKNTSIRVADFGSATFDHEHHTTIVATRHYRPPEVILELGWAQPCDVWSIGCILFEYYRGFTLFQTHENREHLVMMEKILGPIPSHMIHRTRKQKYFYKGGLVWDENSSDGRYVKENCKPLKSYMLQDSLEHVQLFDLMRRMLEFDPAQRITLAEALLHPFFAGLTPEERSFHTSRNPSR
- Assay Method Text: CLK3 kinase activity assay (Z-lyte FRET);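 also: kinase activity read as coumarin/fluorescein emission ratio by FRET, unphosphorylated peptide as 0% and phosphorylated peptide as 100% control, values from non-linear regression of dose-response curves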
- Details: Z-lyte Ser/Thr 18 peptide, 156 μM ATP, 1 h at room temperature
Metric: EC50 (nM)

{"Compound": "O=C(Nc1cncc(-c2ccc3[nH]nc(-c4cc5cccnc5[nH]4)c3c2)c1)C1CCCC1 [compound 429]", "Unit Annotation": "nM", "EC50": 365}
{"Compound": "CCCC(=O)Nc1cncc(-c2cnc3[nH]nc(-c4cc5c(-c6ccncc6)ccnc5[nH]4)c3c2)c1 [compound 384]", "Unit Annotation": "nM", "EC50": 100}
{"Compound": "Fc1ccc(-c2nnc(-c3n[nH]cc3/C=C/c3cccnc3)o2)cc1 [compound 23]", "Unit Annotation": "nM", "EC50": 627}
{"Compound": "NC(=O)c1n[nH]c2ccc(-c3cncc(CN4CCCCC4)c3)cc12 [compound 74]", "Unit Annotation": "nM", "EC50": 498}
{"Compound": "CN1CCN(c2cncc3[nH]c(-c4n[nH]c5ccc(-c6cncc(N)c6)cc45)cc23)CC1 [compound 470]", "Unit Annotation": "nM", "EC50": 40}
{"Compound": "NC(=O)c1ccc(NC(=O)c2n[nH]c3ccc(-c4cncc(CN5CCCCC5)c4)cc23)cn1 [compound 87]", "Unit Annotation": "nM", "EC50": 11}
{"Compound": "Cc1n[nH]c2ccc(-c3cncc(N4CC(C)(N)C4)n3)cc12 [compound 36]", "Unit Annotation": "nM", "EC50": 3400}
{"Compound": "O=C(Nc1cncc(-c2cc3c(-c4nc5c(-c6cccs6)nccc5[nH]4)n[nH]c3cn2)c1)C1CC1 [compound 257]", "Unit Annotation": "nM", "EC50": 115}

I: O=C(Nc1cncc(-c2ccc3[nH]nc(-c4nc5c(-c6cccnc6)cncc5[nH]4)c3c2)c1)c1ccccc1 [compound 192]
II: O=C(Nc1cncc(-c2ccc3[nH]nc(-c4cc5c(-c6cccnc6)cncc5[nH]4)c3c2)c1)C1CCCC1 [compound 356]
Dear colleague, could you let me know whether I or II has the lower recorded EC50? Thanks. Refer to your chosen item by its label in the answer. I
(I: 17 nM, II: 78 nM)

P: O=C(Nc1ccc(CN2CCCC2)cc1)c1n[nH]cc1/C=C/c1cccnc1 [compound 17]
Q: CN(C)CCNc1cc(F)cc(-c2cccc3[nH]c(-c4n[nH]c5cnc(-c6cncc(O)c6)cc45)cc23)c1 [compound 515]
Between these two entries, P and Q , state which has the higher EC50. Answer with the label corresponding to your selection. P
(P: 2670 nM, Q: 109 nM)

1: O=C(Nc1cncc(-c2cnc3[nH]nc(-c4nc5c(-c6cccnc6)cncc5[nH]4)c3c2)c1)C1CC1 [compound 190]
2: c1cncc(-c2ccc3[nH]nc(-c4cc5cnccc5[nH]4)c3c2)c1 [compound 410]
3: CC(C)C(=O)Nc1cncc(-c2cc3c(-c4cc5c(-c6cc(F)cc(CNS(C)(=O)=O)c6)nccc5[nH]4)n[nH]c3cn2)c1 [compound 520]
4: c1cncc(-c2cc3c(-c4nc5ccccc5[nH]4)n[nH]c3cn2)c1 [compound 200]
5: O=C(Cc1ccccc1)Nc1cncc(-c2ccc3[nH]nc(-c4nc5c(-c6ccoc6)cncc5[nH]4)c3c2)c1 [compound 234]
Hey, quick one: sort these by EC50, largest value first please. Please reply with the labels ordered as requested. Many thanks. 4, 5, 3, 1, 2
(4: 209 nM, 5: 120 nM, 3: 75 nM, 1: 39 nM, 2: 15 nM)
